# testSystem: GABAA receptor (rat brain cortical membranes, [35S]-TBPS binding)
propertyMeasured: IC50

Bench note: what IC50 did CCOC[C@@]1(O)CC[C@H]2[C@@H](CC[C@@H]3[C@@H]2CC[C@]2(C)[C@@H](C(=O)Nc4ccccc4)CCC[C@@H]32)C1 show?
0.01 to 0.1 µM

----------
Here, each record is paired with measured IC50 data.
# testSystem: TBPS binding
# assayText: Steroid inhibition of TBPS binding
# conditionContext: Table III-1; read-out: TBPS IC50

C[C@@]1(O)CC[C@H]2[C@@H](CCC[C@@H]3[C@@H]2CC[C@]2(C)[C@@H](C(=O)Cn4cc(C#N)cn4)CC[C@@H]32)C1 [III-A15]    0.1 to 1 µM

We now examine a further compound.
Which IC50 value is on record for CC(=O)[C@H]1CC[C@H]2[C@@H]3CCC[C@H]4C[C@](C)(O)CC[C@@H]4[C@H]3CC[C@]12C [III-A13] ?
1 to 10 µM
